Assay: Toxicity in Homo sapiens (human) HepG2 cells assessed as cell viability at 1 mM after 24 hr by MTT assay
Type: cell-based
Settings: read-out: Activity
READOUT: viability at 24 h, 1000 µM

Q: What does the record list as viability at 24 h, 1000 µM for NNC(=O)c1ccncc1 [ISONIAZID] ?
Result: 125%

Q: Can you handle NC(=O)c1cnccn1 [PYRAZINAMIDE] next?
Result: 87.7%

====

Assay: Toxicity in Homo sapiens (human) HepG2 cells assessed as cell viability at 25 uM after 24 hr by MTT assay
Type: cell-based
Conditions: read-out: Activity
READOUT: viability at 24 h, 25 µM (%)
// note: answer is a bare numeric in %

Q: What does the record list as viability at 24 h, 25 µM for CO[C@H]1/C=C/O[C@@]2(C)Oc3c(C)c(O)c4c(O)c(c(/C=N/N5CCN(C)CC5)c(O)c4c3C2=O)NC(=O)/C(C)=C\C=C\[C@H](C)[C@H](O)[C@@H](C)[C@@H](O)[C@@H](C)[C@H](OC(C)=O)[C@@H]1C ?
Result: 115
